Target: CDK2/CyclinA2 (Homo sapiens, UniProt P24941)
Construct: Wild-type, full length CDK2 in complex with wildtype, full length CyclinA2: Carna Cat #04-103; purchased Carna 04-103
Assay: CDK2/CyclinA2 ChEF Assay (Table A)
Type: biochemical
Conditions: 10xKm, read-out: CDK2/CCNA2 ChEF 10xKm Ki: Average Ki
pKi: −log10 of the molar value.
Here the recorded pKi is given for each entry.

The cases that follow already have their pKi on record.
compound | pKi
O=C1NCCCCCCCNS(=O)(=O)c2ccc(c(F)c2)Nc2cc([nH]n2)[C@H]2CC[C@H](C2)O1 [Compound 92] | > 9.00
O=C1NCCCn2cc(cn2)S(=O)(=O)N2CCC(CC2)Nc2cc([nH]n2)[C@H]2CC[C@H](C2)O1 [Compound 95] | ≤ 7.00
O=C1NCCCCCn2cc(cn2)S(=O)(=O)N2CCC(CC2)Nc2cc([nH]n2)[C@H]2CC[C@H](C2)O1 [Compound 96] | 7.60 to 9.00
CN1CCNC(=O)O[C@@H]2CC[C@@H](C2)c2cc(n[nH]2)Nc2ccc(cc2F)S(=O)(=O)NCC1 [Compound 100] | 7.60 to 9.00
O=C1NCCCNS(=O)(=O)c2ccc(c(F)c2)Nc2cc([nH]n2)[C@H]2CC[C@H](C2)O1 [Compound 98] | 7.00 to 7.60
O=C1NCCCCCNS(=O)(=O)c2ccc(c(F)c2)Nc2cc([nH]n2)[C@H]2CC[C@H](C2)O1 [Compound 90] | 7.60 to 9.00

Let's switch to this compound now.
Lab note: O=C1NCCCCNS(=O)(=O)c2ccc(c(F)c2)Nc2cc([nH]n2)[C@H]2CC[C@H](C2)O1 [Compound 99] gave pKi of > 9.00
